Target of assay: interaction of gp96 and AIMP1 (Mus musculus, UniProt P08113)
Sequence (P08113 22-802): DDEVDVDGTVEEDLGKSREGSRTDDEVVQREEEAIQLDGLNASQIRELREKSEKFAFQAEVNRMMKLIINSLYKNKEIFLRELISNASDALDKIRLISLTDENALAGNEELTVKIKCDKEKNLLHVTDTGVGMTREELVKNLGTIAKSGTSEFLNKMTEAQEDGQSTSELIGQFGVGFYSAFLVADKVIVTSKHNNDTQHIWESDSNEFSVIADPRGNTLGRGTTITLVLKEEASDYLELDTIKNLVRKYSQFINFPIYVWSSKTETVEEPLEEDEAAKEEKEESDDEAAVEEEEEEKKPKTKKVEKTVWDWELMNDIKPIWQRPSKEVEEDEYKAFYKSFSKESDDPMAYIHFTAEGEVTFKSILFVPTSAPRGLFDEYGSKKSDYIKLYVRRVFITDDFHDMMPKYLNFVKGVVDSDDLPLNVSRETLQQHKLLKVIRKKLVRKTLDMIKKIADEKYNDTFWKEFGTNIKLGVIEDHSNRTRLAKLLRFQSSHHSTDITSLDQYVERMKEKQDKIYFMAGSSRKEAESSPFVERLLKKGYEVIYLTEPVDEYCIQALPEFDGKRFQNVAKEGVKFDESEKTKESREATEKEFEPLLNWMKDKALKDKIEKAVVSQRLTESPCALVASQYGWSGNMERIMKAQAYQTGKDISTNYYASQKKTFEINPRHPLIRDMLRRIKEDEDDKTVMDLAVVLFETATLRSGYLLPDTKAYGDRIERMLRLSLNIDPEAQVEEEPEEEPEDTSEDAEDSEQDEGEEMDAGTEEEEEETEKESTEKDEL
Assay method text: ELISA assay of gp96-AIMP1 interaction
Assay type: binding, murine
Condition parameters: read-out: Inhibition rate (at 100 nM; %)
Recorded metric: inhibition at 0.1 µM (%)

COC(=O)C(C)Oc1nc(C)c(Cl)c(OC)n1 (stereo not drawn)	97
CC(C)(C)Oc1cc(OC(C)(C)C)nc(Oc2cccnc2)n1	86
COc1cc(OC)nc(Oc2cccnc2N)n1	54
COc1nc(OCc2ccccc2)nc(OC)c1C(N)=O	90
COc1cc(OC)nc(OCc2ccccc2Cl)n1	76
COC(=O)C(Oc1nc(OC)cc(OC)n1)c1cccs1 (stereo not drawn)	71

====

Target of assay: gp96 V706A/L707A (Homo sapiens, UniProt P14625, L711A/V710A)
Sequence (P14625 22-803 V710A/L711A): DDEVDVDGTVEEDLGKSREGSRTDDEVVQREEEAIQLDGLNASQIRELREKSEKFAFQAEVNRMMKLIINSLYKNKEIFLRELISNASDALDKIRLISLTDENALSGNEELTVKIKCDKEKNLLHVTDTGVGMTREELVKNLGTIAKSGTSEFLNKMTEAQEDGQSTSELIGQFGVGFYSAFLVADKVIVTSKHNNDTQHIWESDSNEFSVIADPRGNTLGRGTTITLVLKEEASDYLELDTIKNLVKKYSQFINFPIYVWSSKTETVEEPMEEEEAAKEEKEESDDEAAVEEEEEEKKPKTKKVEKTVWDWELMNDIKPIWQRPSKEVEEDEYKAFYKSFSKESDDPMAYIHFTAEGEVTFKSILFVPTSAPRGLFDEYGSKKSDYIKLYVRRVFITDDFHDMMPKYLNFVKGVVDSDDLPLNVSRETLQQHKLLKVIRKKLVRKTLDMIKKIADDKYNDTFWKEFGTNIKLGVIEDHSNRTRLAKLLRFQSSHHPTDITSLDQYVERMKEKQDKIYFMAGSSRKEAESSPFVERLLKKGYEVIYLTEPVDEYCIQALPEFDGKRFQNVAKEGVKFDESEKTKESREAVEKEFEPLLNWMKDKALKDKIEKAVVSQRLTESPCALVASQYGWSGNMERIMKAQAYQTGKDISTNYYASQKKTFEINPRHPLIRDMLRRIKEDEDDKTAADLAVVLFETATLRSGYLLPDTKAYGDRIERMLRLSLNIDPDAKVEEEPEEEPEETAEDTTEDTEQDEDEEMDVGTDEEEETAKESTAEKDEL
Assay method text: Surface plasmon resonance, GPM1 binding to gp96 mutant V706A/L707A
Recorded metric: Kd (nM)
API: value field is a number in nM; no unit string.

Item COC(=O)[C@@H](Oc1nc(OC)cc(OC)n1)C(C)C [GPM1] with gp96 V706A/L707A (Homo sapiens, UniProt P14625, L711A/V710A) - Kd? 88.6

====

Target of assay: interaction of gp96 and AIMP1 (Mus musculus)
Assay method text: ELISA assay of gp96-AIMP1 interaction
Format: binding, murine
Condition parameters: read-out: Inhibition rate (at 100 nM; %)
Recorded metric: inhibition at 0.1 µM (%)

For orientation, consider the following solved cases.
Oc1nc(Oc2ccc(F)c(C(F)(F)F)c2)cc(Oc2ccc(F)c(C(F)(F)F)c2)n1 [Formula 14]	84
COc1cc(OC)nc(Oc2ccncc2)n1 [Formula 11]	95
COC(=O)C(Oc1nc(OC)cc(OC)n1)c1ccc(Br)cc1 (centres unmarked) [Formula 4]	94

[1] COc1cc(OC)nc(O[C@@H](C(=O)O)c2ccccc2)n1 [Formula 8]
[2] COc1cc(OC)nc(OC(C(=O)O)c2ccccc2)n1 (centres unmarked) [Formula 7]
Parameter check: reported inhibition at 0.1 µM is higher for which label, 1 or 2 ? Please reply using the label of the selected record. 2
(2: 99%, 1: 30%)

====

Target of assay: gp96 Y731F (Homo sapiens, UniProt P14625, Y735F)
Sequence (P14625 22-803 Y735F): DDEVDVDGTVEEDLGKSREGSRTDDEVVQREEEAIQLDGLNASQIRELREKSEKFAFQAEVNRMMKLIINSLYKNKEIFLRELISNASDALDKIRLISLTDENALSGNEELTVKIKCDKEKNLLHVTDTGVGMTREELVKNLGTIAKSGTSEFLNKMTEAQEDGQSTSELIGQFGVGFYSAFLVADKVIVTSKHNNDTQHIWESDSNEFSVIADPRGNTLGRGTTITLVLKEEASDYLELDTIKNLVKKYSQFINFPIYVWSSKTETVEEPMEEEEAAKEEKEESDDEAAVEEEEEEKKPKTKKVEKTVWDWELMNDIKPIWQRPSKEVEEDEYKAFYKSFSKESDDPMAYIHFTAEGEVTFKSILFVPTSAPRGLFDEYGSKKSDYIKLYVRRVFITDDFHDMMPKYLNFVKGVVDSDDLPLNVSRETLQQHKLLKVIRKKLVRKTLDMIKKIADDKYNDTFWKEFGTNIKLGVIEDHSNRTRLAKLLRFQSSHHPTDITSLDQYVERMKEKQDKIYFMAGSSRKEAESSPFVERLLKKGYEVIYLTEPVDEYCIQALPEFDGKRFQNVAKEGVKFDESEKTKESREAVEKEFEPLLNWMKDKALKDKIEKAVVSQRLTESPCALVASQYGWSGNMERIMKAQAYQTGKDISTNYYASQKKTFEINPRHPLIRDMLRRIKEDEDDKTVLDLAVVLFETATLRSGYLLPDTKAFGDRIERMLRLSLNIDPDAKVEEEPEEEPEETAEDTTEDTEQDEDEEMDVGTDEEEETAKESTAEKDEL
Assay method text: Surface plasmon resonance, GPM1 binding to gp96 mutant Y731F
Recorded metric: pKd
Remember, pKd is on a log scale: it is -log10 of the molar concentration.

Dear colleague, I am looking for the recorded pKd of the following molecule: COC(=O)[C@@H](Oc1nc(OC)cc(OC)n1)C(C)C 6.14

====

Target of assay: interaction of gp96 and AIMP1 (Mus musculus, UniProt P08113)
Assay method text: ELISA assay of gp96-AIMP1 interaction
Format: binding, murine
Condition parameters: read-out: Inhibition rate (at 100 nM; %)
Recorded metric: inhibition at 0.1 µM (%)

COC(=O)C(Oc1nc(OC)cc(OC)n1)C(C)C (stereo not drawn)	82
CC(C)(C)Oc1ncc(-c2ccccn2)c(OC(C)(C)C)n1	86
COC(=O)[C@@H](Oc1nc(OC)cc(OC)n1)C(C)C	95
